The values you see were collected from ChEMBL document CHEMBL2203000.

assay: AUC in Sprague-Dawley rat plasma at 10 mg/kg, po by LC-MS/MS analysis; type: ADME, organism-based; parameters: dose 10 mg/kg, route oral; details: Sprague-Dawley, plasma
measured_attribute: log10 AUC (log10 of the value in µM·h)

compound_smiles=Cc1ccnc(C(=O)Nc2ccc(NC(=O)Nc3cc(C(C)(C)C)on3)cc2)c1 meas_value=-0.30
compound_smiles=CCN1CCC(c2ccc(C(=O)Nc3ccc(NC(=O)Nc4cc(C(C)(C)C)on4)cc3)nc2)CC1 meas_value=-0.05
compound_smiles=CC(C)N1CCC(Oc2ccc(C(=O)Nc3ccc(NC(=O)Nc4cc(C(C)(C)C)on4)cc3)nc2)CC1 meas_value=0.54
compound_smiles=CCN1CCC(Cc2ccc(C(=O)Nc3ccc(NC(=O)Nc4cc(C(C)(C)C)on4)cc3)nc2)CC1 meas_value=0.15
compound_smiles=CCN1C(C)(C)CC(Oc2ccc(C(=O)Nc3ccc(NC(=O)Nc4cc(C(C)(C)C)on4)cc3)nc2)CC1(C)C meas_value=1.00
compound_smiles=CC1(C)CC(Oc2ccc(C(=O)Nc3ccc(NC(=O)Nc4cc(C(C)(C)C)on4)cc3)nc2)CC(C)(C)N1 meas_value=0.38
